System: Solanum nigrum
protocol: Example B2 herbicidal action, post-emergence, pots in glasshouse, damage score 0-10
Type: in vivo
experimental-parameters: application post-emergence, rate 1000 g/ha, evaluated after 13 days
property-name: SOLNI damage score (10=total damage to plant; 0=no damage to plant)

compound_string=CC(C)(C)C(=O)OC1=C(c2c(F)ccc(Br)c2Cl)S(=O)(=O)N(CC(F)F)c2nccnc21 data_value=10
compound_string=CCSC(=O)OC1=C(c2c(C(F)(F)F)ccc(Cl)c2Cl)S(=O)(=O)N(CC(F)F)c2nccnc21 data_value=10
compound_string=CC(C)C(=O)OC1=C(c2cccc(Cl)c2Cl)S(=O)(=O)N(CC(F)F)c2nccnc21 data_value=7
compound_string=CCN1c2nccnc2C(OC(=O)C(C)C)=C(c2ccc(Cl)c(Cl)c2)S1(=O)=O data_value=0
compound_string=O=S1(=O)C(c2c(Br)cccc2Br)=C(O)c2nccnc2N1CC(F)F data_value=9
compound_string=CC(C)(C)C(=O)OC1=C(c2c(F)cccc2C(F)(F)F)S(=O)(=O)N(CC(F)F)c2nccnc21 data_value=6
compound_string=COc1ccc(Cl)c(C2=C(OC(=O)C(C)(C)C)c3nccnc3N(CC(F)F)S2(=O)=O)c1F data_value=4
compound_string=CC(C)(C)C(=O)OC1=C(c2cc(Cl)ccc2C(F)(F)F)S(=O)(=O)N(CC(F)F)c2nccnc21 data_value=9
compound_string=CCN1c2nccnc2C(O)=C(c2c(Cl)cccc2C(F)(F)F)S1(=O)=O data_value=10
compound_string=CCN1c2nccnc2C(OC(=O)C(C)(C)C)=C(c2cc(F)c(Cl)cc2Cl)S1(=O)=O data_value=7
compound_string=CCOC(=O)OC1=C(c2cc(Cl)ccc2C(F)(F)F)S(=O)(=O)N(CC(F)F)c2nccnc21 data_value=9
compound_string=Cc1ccc(C(F)(F)F)c(C2=C(OC(=O)C(C)C)c3nccnc3N(CC(F)F)S2(=O)=O)c1 data_value=7
compound_string=CC(C)(C)C(=O)OC1=C(c2cc(F)c(Cl)cc2Cl)S(=O)(=O)N(CC(F)F)c2nccnc21 data_value=10
compound_string=O=S1(=O)C(c2c(F)ccc(-c3cccc(Cl)c3)c2Cl)=C(O)c2nccnc2N1CC(F)F data_value=5
compound_string=O=S1(=O)C(c2c(Cl)ccc(Cl)c2C(F)(F)F)=C(O)c2nccnc2N1CC(F)F data_value=8
compound_string=CCN1c2nccnc2C(O)=C(c2cc(F)c(Cl)cc2Cl)S1(=O)=O data_value=8
compound_string=CCN1c2nccnc2C(OC(=O)C(C)C)=C(c2ccccc2C(F)(F)F)S1(=O)=O data_value=9
compound_string=CCN1c2nccnc2C(OC(=O)C(C)(C)C)=C(c2cc(C(F)(F)F)ccc2Cl)S1(=O)=O data_value=6
compound_string=O=S1(=O)C(c2ccccc2C(F)(F)F)=C(O)c2nccnc2N1CC(F)F data_value=10
compound_string=CCN1c2nccnc2C(OC(=O)C(C)(C)C)=C(c2ccccc2C(F)(F)F)S1(=O)=O data_value=5
compound_string=CC(C)C(=O)OC1=C(c2cc(C(F)(F)F)ccc2Cl)S(=O)(=O)N(CCCl)c2nccnc21 data_value=10
compound_string=CC(C)C(=O)OC1=C(c2c(Cl)ccc(Cl)c2C(F)(F)F)S(=O)(=O)N(CC(F)F)c2nccnc21 data_value=5
compound_string=C#CCN1c2nccnc2C(OC(=O)SCC)=C(c2c(Cl)ccc(Cl)c2C(F)(F)F)S1(=O)=O data_value=10
compound_string=CCc1cc(C)cc(CC)c1C1=C(OC(=O)C(C)C)c2nccnc2N(CC(F)F)S1(=O)=O data_value=5
compound_string=COc1ccc(F)c(C2=C(OC(=O)C(C)C)c3nccnc3N(CC(F)F)S2(=O)=O)c1 data_value=7
compound_string=CC(C)C(=O)OC1=C(c2ccc(Br)cc2C(F)(F)F)S(=O)(=O)N(CC(F)F)c2nccnc21 data_value=10
compound_string=C#CCN1c2nccnc2C(OC(=O)C(C)C)=C(c2ccccc2[N+](=O)[O-])S1(=O)=O data_value=2
compound_string=CCN1c2nccnc2C(O)=C(c2cc(Cl)ccc2C(F)(F)F)S1(=O)=O data_value=7
compound_string=CCN1c2nccnc2C(O)=C(c2c(Cl)ccc(Cl)c2C(F)(F)F)S1(=O)=O data_value=8
compound_string=CC(C)C(=O)OC1=C(c2cc(C(F)(F)F)ccc2Cl)S(=O)(=O)N(CC(Cl)Cl)c2nccnc21 data_value=9
compound_string=CCSC(=O)OC1=C(c2c(Cl)cccc2C(F)(F)F)S(=O)(=O)N(CC(F)F)c2nccnc21 data_value=9
